Reported pKi values, 5-hydroxytryptamine receptor 1A (Homo sapiens).
As a rule, pKi stands for the negative log10 of the concentration, concentration in M.

# input Consider the compound O=c1ccc2[nH]cc(C3=CCNCC3)c2[nH]1 and give its measured pKi.
# output 5.43

# input Consider the compound CN1C[C@@H](NS(=O)(=O)N(C)C)C[C@@H]2c3cccc4c3c(cn4C)C[C@H]21 and give its measured pKi.
# output 6.71

# input Consider the compound Cn1cc(C(F)(F)F)nc1-c1ccc(OCC(O)CNCCOc2ccc(O)c(C(N)=O)c2)cc1 (stereo unspecified) and give its measured pKi.
# output 5.13

# input Consider the compound OC(CNCC(O)C1CCc2cc(F)ccc2O1)C1CCc2cc(F)ccc2O1 (stereo unspecified) and give its measured pKi.
# output 7.59

# input Consider the compound Cc1nc2c(C)cccn2c(=O)c1CCN1CCC(c2noc3cc(F)ccc23)CC1 and give its measured pKi.
# output 7.86

Just for reference, BindingDB's records for doi:10.1016/0006-2952(93)90073-6 is where these values come from.
